# assay_method_text: qHTS profiling of the MIPE4 collection as inhibitors of Plasmodium falciparum (DD2) proliferation (AID 743345)
# experimental_setup: P. falciparum Dd2 in erythrocytes, SYBR Green DNA, 72 h; at 28.5 µM (top of the series) unless noted
parasite growth remaining, % of DMSO control (lower = more inhibition) under 40% gets Yes, anything at or over 40% gets No.

>>> answer_label("CNC(=O)c1c(-c2ccc(F)cc2)oc2cc(N(CCO)S(C)(=O)=O)c(C3CC3)cc12")
"Yes"
>>> answer_label("CC(C)(C)c1nc(-c2cccc(NS(=O)(=O)c3c(F)cccc3F)c2F)c(-c2ccnc(N)n2)s1")
"Yes"
>>> answer_label("N=C1SC(=Cc2ccc(-c3ccc4c(c3)C(=O)NC4=O)o2)C(=O)N1c1ccc(Br)cc1")
"Yes"
>>> answer_label("C#CCN(C)CC1=Cc2ccccc2Oc2ccccc21")
"No"
>>> answer_label("NC[C@H]1O[C@H](O[C@@H]2[C@@H](O)[C@@H](O[C@H]3O[C@H](CO)[C@@H](O)[C@H](N)[C@@H]3O)[C@H](N)C[C@@H]2N)[C@H](O)[C@@H](O)[C@H]1O")
"No"
>>> answer_label("CCCCC(F)(F)[C@@]1(O)CC[C@H]2[C@H](CC(=O)[C@@H]2CCCCCCC(=O)O)O1")
"No"
>>> answer_label("CC1(COc2ccc3c(c2)ncn3-c2ccc3cccc(N4CCC(N)CC4)c3n2)COC1")
"Yes"
>>> answer_label("CC(C)CN(C[C@H](O)[C@H](Cc1ccccc1)NC(=O)O[C@H]1CCOC1)S(=O)(=O)c1ccc(N)cc1")
"No"
>>> answer_label("CC1(C)[C@H]2CC[C@]3(C)[C@@H](C(=O)C=C4[C@@H]5C[C@@](C)(C(=O)O)CC[C@]5(C)CC[C@]43C)[C@@]2(C)CC[C@@H]1O")
"No"
>>> answer_label("CCCCc1ccc(NS(=O)(=O)c2ccc(C)c(C(=O)N3CCN(c4cccc(C)c4C)CC3)c2)cc1")
"No"
>>> answer_label("CC(=O)OCC(=O)[C@@]1(O)CC[C@H]2[C@@H]3CCC4=CC(=O)C=C[C@]4(C)[C@@H]3[C@@H](O)C[C@@]21C")
"No"
>>> answer_label("CNC(=O)[C@H](CC1=CN=C2C=CCC=C12)NC(=O)[C@@H](CC(=O)NO)CC(C)C")
"No"
>>> answer_label("CN1CCC[C@H]1CCO[C@](C)(c1ccccc1)c1ccc(Cl)cc1")
"Yes"
>>> answer_label("CN1CCC(COc2cnc(-c3cccc(Cn4nc(-c5cccc(C#N)c5)ccc4=O)c3)nc2)CC1")
"Yes"
>>> answer_label("CN(C)CC[C@H](CSc1ccccc1)Nc1ccc(S(=O)(=O)NC(=O)c2ccc(N3CCN(Cc4ccccc4-c4ccc(Cl)cc4)CC3)cc2)cc1[N+](=O)[O-]")
"No"
>>> answer_label("C[C@@]1(c2cc(-c3cncnc3)c(F)cc2F)CCSC(N)=N1")
"No"
>>> answer_label("NC1(C(=O)N[C@@H](CCO)c2ccc(Cl)cc2)CCN(c2ncnc3[nH]ccc23)CC1")
"No"
>>> answer_label("CO[C@H]1O[C@@H]2O[C@@]3(C)CC[C@@H]4[C@@H](C)CC[C@@H]([C@H]1C)[C@@]24OO3")
"Yes"
>>> answer_label("CC(C)C[C@H](NC(=O)c1cc2ccccc2s1)C(=O)N1CCN(C(=O)[C@H](CO)NS(=O)(=O)c2ccc(Cl)cc2Cl)CC1")
"No"
>>> answer_label("CN(C)CCN(C)C(=O)c1ccc(NC(=O)Nc2ccc(-c3nc(N4CCOCC4)c4ccn(CC(F)(F)F)c4n3)cc2)cc1")
"Yes"
>>> answer_label("COc1cc(F)c(C(C)C)cc1-c1ccc(C(F)(F)F)cc1CN1C(=O)O[C@H](c2cc(C(F)(F)F)cc(C(F)(F)F)c2)[C@@H]1C")
"Yes"
>>> answer_label("Nc1[nH]nc2nnc(-c3c(-c4ccccc4)nn4ccccc34)cc12")
"No"

---

# assay_method_text: Quantitative High-Throughput drug screen in 47 multiple myeloma cell lines against the NCATS MIPE library collection: KMM1_JCRB cell viability assay (AID 1918960); note: nearly all actives have a fitted effect of over 30% in size
# experimental_setup: KMM1 myeloma viability, CellTiter-Glo ATP luminescence, 48 h; series mostly up to 45.8 µM
Results filed as inconclusive are left out. Activity calls are given as the source filed them. The call rests on the fitted dose curve; in most records, active means well fitted cell-killing curve with a large enough effect; inconclusive means small, poorly fitted or top-dose-only effect, or effect the other way; inactive means no such curve, though single readings can be large or run the other way.
Possible outcomes: TRUE = active, FALSE = inactive

>>> answer_label("CN1CCN2c3ncccc3Cc3ccccc3C2C1 (configuration not stated)")
"FALSE"
>>> answer_label("CCOC(=O)N1c2ccc(C(F)(F)F)cc2[C@@H](N(Cc2cc(C(F)(F)F)cc(C(F)(F)F)c2)C(=O)OC)C[C@H]1CC")
"FALSE"
>>> answer_label("Cc1nc(NC(=O)N2CCC[C@@H]2C(N)=O)sc1-c1csc(C(C)(C)C)n1")
"TRUE"
>>> answer_label("Cc1nn(Cc2ccccc2Cl)c(C)c1CN(C)CC(O)COc1ccc(Cl)cc1 (configuration not stated)")
"TRUE"
>>> answer_label("COc1cc([C@H]2Oc3cc([C@H]4Oc5cc(O)cc(O)c5C(=O)[C@H]4O)ccc3O[C@H]2CO)ccc1O")
"FALSE"
>>> answer_label("Cc1ccc(C2=Nc3ccc(Cl)cc3OC2)cc1")
"TRUE"
>>> answer_label("O=c1[nH]nc(OCCCc2ccc(Cl)cc2)c(NCc2cccnc2)c1Br")
"TRUE"
>>> answer_label("NC(=O)c1nnn(Cc2cc(Cl)c(C(=O)c3ccc(Cl)cc3)c(Cl)c2)c1N")
"TRUE"
>>> answer_label("CN(CC=CC#CC(C)(C)C)Cc1cccc2ccccc12")
"FALSE"
>>> answer_label("COC(=O)Nc1ccc(-c2nc(N3CCOCC3)c3cnn(C4CCN(C(=O)OC)CC4)c3n2)cc1")
"TRUE"
>>> answer_label("O=C(CCCN1CCN(c2ccc(F)cc2)CC1)NC1c2ccccc2CSc2ccccc21 (configuration not stated)")
"TRUE"
>>> answer_label("COc1cc(C=CC(=O)O)ccc1O")
"FALSE"
>>> answer_label("CC(C)c1onc(-c2c(Cl)cccc2Cl)c1COc1ccc(C=Cc2cccc(C(=O)O)c2)c(Cl)c1")
"FALSE"
>>> answer_label("O=C(O)c1nc(=O)[nH]c(=O)[nH]1")
"FALSE"
>>> answer_label("CN(C)c1ccc(-c2nc3ncc(Cl)c(N4CCN(CC(=O)Nc5nccs5)CC4)c3[nH]2)cc1")
"FALSE"
>>> answer_label("O=S(=O)(O)c1ccc2cc(N=Nc3cc(S(=O)(=O)O)c4cccnc4c3O)ccc2c1")
"FALSE"
>>> answer_label("CN1CC(=O)NC1=NC(=O)Nc1cccc(Cl)c1")
"TRUE"
>>> answer_label("CCN1CCC(n2cc(CNc3cc(Cl)c4ncc(C#N)c(Nc5ccc(F)c(Cl)c5)c4c3)nn2)CC1")
"FALSE"
>>> answer_label("O=C(NC[C@H](O)CO)c1ccncc1Nc1ccc(I)cc1F")
"TRUE"
>>> answer_label("Oc1ccc(C=Cc2cc(O)cc(O)c2)cc1")
"FALSE"
>>> answer_label("COc1ccc2c(c1)c(C1=C(c3c[nH]c4ccccc34)C(=O)NC1=O)cn2CCCN(C)C")
"TRUE"
>>> answer_label("CCCCC(F)(F)[C@@]1(O)CC[C@H]2[C@H](CC(=O)[C@@H]2CCCCCCC(=O)O)O1")
"FALSE"

---

# assay_method_text: Quantitative High-Throughput drug screen in 47 multiple myeloma cell lines against the NCATS MIPE library collection: MMM1_PLB cell viability assay (AID 1918976); note: potency is the fitted concentration of half-maximal effect; nearly all actives have a fitted effect of over 35% in size
# experimental_setup: MMM1 myeloma cells viability, CellTiter-Glo, 48 h; series mostly up to 45.8 µM
Results filed as inconclusive are left out. Calls of active or inactive are those of the source. Calls follow the shape of the dose curve; as a rule, active = well fitted cell-killing curve with a large enough effect; inconclusive = small, poorly fitted or top-dose-only effect, or effect the other way; inactive = no such curve, though single readings can be large or run the other way.
// Potency lookup, one value per entry
parameter: Potency

>>> result("Cc1nc(C(=O)NCC(=O)O)c(O)c2ccc(Oc3ccccc3)cc12")
"0.0053 µM (active)"
>>> result("Cc1cnc(CNC(=O)c2c(=O)c3ccc(N4CCCN(C)CC4)nc3n3c2sc2ccccc23)cn1")
"9.11 µM (active)"
>>> result("C[C@H](CCC(=O)O)[C@H]1CC[C@H]2[C@H]3[C@@H](CC[C@]12C)[C@@]1(C)CC[C@@H](O)C[C@H]1C[C@@H]3O")
"1.66 µM (active)"
>>> result("CNc1nc(Nc2ccc(C(=O)N3CCOCC3)cc2OC)ncc1Cl")
"13.2 µM (active)"
>>> result("COc1cc2c(cc1Cc1cccc(Cl)c1F)c(=O)c(C(=O)O)cn2[C@H](CO)C(C)C")
"16.6 µM (active)"
>>> result("C=CCc1cccc(C=NNC(=O)CN2CCN(Cc3ccccc3)CC2)c1O")
"16.6 µM (active)"
>>> result("CC1(C)CC(=O)c2c(C(F)(F)F)nn(-c3ccc(C(N)=O)c(NC4CCC(O)CC4)c3)c2C1 (stereo unspecified)")
"0.372 µM (active)"
>>> result("COc1cc2nccc(Oc3ccc(NC(=O)Nc4ccc(F)cc4F)c(F)c3)c2cc1OC")
"0.0935 µM (active)"
>>> result("C=C1[C@H](n2cnc3c(=O)[nH]c(N)nc32)C[C@H](O)[C@H]1CO")
"3.72 µM (active)"
>>> result("CCCCc1ccc(NS(=O)(=O)c2ccc(C)c(C(=O)N3CCN(c4cccc(C)c4C)CC3)c2)cc1")
"18.7 µM (active)"
>>> result("COc1cc2c(cc1OC)CC(=O)N(CCCN(C)C[C@H]1Cc3cc(OC)c(OC)cc31)CC2")
"7.43 µM (active)"
>>> result("CN1[C@H]2CC[C@H]1CC(OC(=O)c1c[nH]c3ccccc13)C2 (stereo partly specified)")
"1.32 µM (active)"
>>> result("CNC(=O)c1cc(Oc2ccc(NC(=O)Nc3ccc(Cl)c(C(F)(F)F)c3)c(F)c2)ccn1")
"8.33 µM (active)"
>>> result("CO[C@H]1/C=C\\O[C@@]2(C)Oc3c(C)c(O)c4c(O)c(c5c(nc6cc(C)ccn65)c4c3C2=O)NC(=O)C(C)=CC=C[C@H](C)[C@H](O)[C@@H](C)[C@@H](O)[C@@H](C)[C@H](OC(C)=O)[C@H]1C")
"0.0148 µM (active)"
>>> result("Cc1cccc(Nc2nc(N[C@@H]3CCCC[C@H]3N)ncc2C(N)=O)c1")
"20.9 µM (active)"
>>> result("CCCCC(C)(C)[C@H](O)C=C[C@H]1[C@H](O)CC(=O)[C@H]1CC=CCCCC(=O)O")
"16.6 µM (active)"
